# credit: patent US20180296456A1

# Protocol Notes: MTT cell proliferation assay, melanoblasts
# Type: cell-based, human
# Details: human, 10 μM, MTT, 72 h, read-out: melanoblast proliferation rate after 72 hours
Ends that are not written are not given here.
Give viability at 72 h, 10 µM for every item shown.
One number for each entry, in %.

Ac-YRSRKYSSWY-NH2 [P4C, Acetyl-YRSRKYSSWY-amide]
100

Now for another entry.
Consider the substance shown here: YRSRKYSSWY [decapeptide-12, YRSRKYSSWY] What is its recorded viability at 72 h, 10 µM?
100

###

Give viability at 168 h, 50 µM for every item shown.
# Protocol Notes: Trypan blue cell viability, 7 days, melanoblasts
# Format: cell-based
# Details: human, 50 μM, relative to control, read-out: melanoblast viability after 7 days
Peptide text beside a SMILES is read from it.
Give bare numbers, in %.

CCCCCCCCCCCCCCCC(=O)N[C@@H](Cc1ccc(O)cc1)C(=O)N[C@@H](CCCNC(=N)N)C(=O)N[C@@H](CO)C(=O)N[C@@H](CCCNC(=N)N)C(=O)N[C@@H](CCCCN)C(=O)N[C@@H](Cc1ccc(O)cc1)C(=O)N[C@@H](CO)C(=O)N[C@@H](CO)C(=O)N[C@@H](Cc1c[nH]c2ccccc12)C(=O)N[C@@H](Cc1ccc(O)cc1)C(N)=O [P4A, Palmitoyl-YRSRKYSSWY-amide] (HELM PEPTIDE1{[CCCCCCCCCCCCCCCC(=O)[*:2]].Y.R.S.R.K.Y.S.S.W.Y.[am]}$$$$V2.0)
98

Consider the molecule shown here: CCCCCCCCCCCCCCCC(=O)N[C@@H](Cc1ccc(O)cc1)C(=O)N[C@@H](CCCNC(=N)N)C(=O)N[C@@H](CO)C(=O)N[C@@H](CCCNC(=N)N)C(=O)N[C@@H](CCCCN)C(=O)N[C@H](Cc1ccc(O)cc1)C(=O)N[C@@H](CO)C(=O)N[C@@H](CO)C(=O)N[C@@H](Cc1c[nH]c2ccccc12)C(=O)N[C@@H](Cc1ccc(O)cc1)C(N)=O [P4B, Palmitoyl-YRSRK[*Y]SSWY-amide] (HELM PEPTIDE1{[CCCCCCCCCCCCCCCC(=O)[*:2]].Y.R.S.R.K.[dY].S.S.W.Y.[am]}$$$$V2.0) What is its recorded viability at 168 h, 50 µM?
97.2
